Recorded values, source patent US20220073604A1.

Each entry below lists one item and its recorded kon value.
# TARGET_OR_TEST_SYSTEM: T1, bacterially produced human IL-6 (human, UniProt P05231 30-212)
# T1 construct: also called bactIL-6; prokaryotic IL-6
# MEASUREMENT_PROTOCOL: SPR; purified Fab over biotinylated IL-6 on streptavidin chip
Give your result in M⁻¹ s⁻¹ as a bare value.

Query string: If you can, please state the reported kon value of Fab 24E9 (Fab, V domains shown, Fab) VH: EVQLVESGGGLVQPGGSLRLSCAASGFTFSTYAMSWVRQAPGKGPEWVSRISSGGGSTNYADSVKGRFTISRDNAKKTLYLQMKSLKPEDTAVYYCANRAGWGMGDYWGQGTQVTVSS VL: QTVVTQEPSLSVSPGGTVTLTCGLSSGSVTASNYPGWFQQTPGQAPRALIYSTNDRHSGVPSRFSGSISGNKAALTITGAQPEDEADYYCALDIGDITEFGGGTHLTVLG .
Result string: 117000

Query string: Report kon for Fab 18F8 (Fab, V domains shown, Fab) VH: EVQLVESGGGLVQPGGSLRLSCAASGFTFSRNAMSWVRQAPGKGLEWVSAINSGGGSTSYADSVKGRFTISRDNAKNTLYLQMNSLKPEDTAVYYCAKEGYTGWKDPMYDYWGQGTQVTVSS VL: QSALTQPSALSVTLGQTAKITCQGGSLGSRYAHWYQQKPGQAPVLVIYDDDSRPSGIPERFSGSSSGGRATLTISGAQAEDEGDYYCQSADTSEHIVFGGGTHLTVLG please.
Result string: 48400

Query string: Name the recorded kon for Fab 18C9 (Fab, V domains shown, Fab) VH: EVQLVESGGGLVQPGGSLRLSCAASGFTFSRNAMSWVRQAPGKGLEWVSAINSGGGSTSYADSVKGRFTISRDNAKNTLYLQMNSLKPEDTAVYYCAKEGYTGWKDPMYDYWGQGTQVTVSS VL: LNFMLTQPSALSVTLGQTAKITCQGGSLGSRYAHWYQQKPGQAPVLVIYDDDSRPSGIPERFSGSSSGGRATLTISGAQAEDDGDYYCQSADSSGNASVFGGGTHLTVLG .
Result string: 55600
